Record form. Attribute: inhibition at 0.01 µg/mL. Fill in for each entry.
# measured on: HBV polymerase (Hepatitis B virus genotype D subtype ayw)
# Construct: made in house; host or cells: E. coli
# Sequence (P03156 whole entry): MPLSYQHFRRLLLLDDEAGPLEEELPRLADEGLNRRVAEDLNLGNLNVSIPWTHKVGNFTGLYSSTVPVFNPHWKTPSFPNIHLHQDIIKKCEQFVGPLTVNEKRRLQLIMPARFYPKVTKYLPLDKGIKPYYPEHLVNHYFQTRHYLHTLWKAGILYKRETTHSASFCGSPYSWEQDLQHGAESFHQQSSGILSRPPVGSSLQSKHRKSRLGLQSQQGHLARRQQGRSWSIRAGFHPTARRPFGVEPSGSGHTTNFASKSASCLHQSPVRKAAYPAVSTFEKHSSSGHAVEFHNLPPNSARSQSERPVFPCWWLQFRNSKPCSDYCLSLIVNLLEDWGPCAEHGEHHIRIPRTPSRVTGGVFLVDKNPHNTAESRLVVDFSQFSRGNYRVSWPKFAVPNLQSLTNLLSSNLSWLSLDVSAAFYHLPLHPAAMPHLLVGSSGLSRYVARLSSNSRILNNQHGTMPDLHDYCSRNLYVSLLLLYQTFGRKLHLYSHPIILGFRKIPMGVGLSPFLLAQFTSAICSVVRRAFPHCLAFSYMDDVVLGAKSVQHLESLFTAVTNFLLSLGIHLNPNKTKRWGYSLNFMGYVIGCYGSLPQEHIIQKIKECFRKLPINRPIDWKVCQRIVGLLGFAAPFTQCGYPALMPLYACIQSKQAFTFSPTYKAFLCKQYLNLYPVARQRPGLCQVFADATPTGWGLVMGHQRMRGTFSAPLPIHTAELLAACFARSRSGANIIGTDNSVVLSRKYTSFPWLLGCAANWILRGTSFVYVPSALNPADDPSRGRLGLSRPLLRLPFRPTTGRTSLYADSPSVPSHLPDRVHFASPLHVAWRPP
# test protocol: Inhibitory activities against HBV polymerase (reverse transcriptase activity) in vitro
# Format: biochemical
# condition description: 0.01 μg/ml; read-out: Inhibitory activity of HBV-RT (%)
Write down the numeric answer in % and omit the unit.

Kindly note the recorded inhibition at 0.01 µg/mL for CCNc1cccnc1N1CCN(C(=O)c2ccc(C(=O)NC(C)C)cn2)CC1 , which is 54

Kindly note the recorded inhibition at 0.01 µg/mL for Cc1csc(NC(=O)c2ccc(C(=O)N3CCN(c4ncccc4NC(C)C)CC3)nc2)n1 , which is 30

Kindly note the recorded inhibition at 0.01 µg/mL for COCCN(CCOC)C(=O)c1ccc(C(=O)N2CCN(c3ncccc3NC(C)C)CC2)nc1 , which is 15

Kindly note the recorded inhibition at 0.01 µg/mL for CC(C)CNc1cccnc1N1CCN(C(=O)c2ccc(C(=O)NC(C)C)cn2)CC1 , which is 58

Kindly note the recorded inhibition at 0.01 µg/mL for CC(C)Nc1cccnc1N1CCN(C(=O)c2ccc(C(=O)NCCN(C)C)cn2)CC1 , which is 47

Kindly note the recorded inhibition at 0.01 µg/mL for COCCNC(=O)c1ccc(C(=O)N2CCN(c3ncccc3NCC(C)C)CC2)nc1 , which is 52
